Target: Pdr3 (UniProt P33200)
Sequence: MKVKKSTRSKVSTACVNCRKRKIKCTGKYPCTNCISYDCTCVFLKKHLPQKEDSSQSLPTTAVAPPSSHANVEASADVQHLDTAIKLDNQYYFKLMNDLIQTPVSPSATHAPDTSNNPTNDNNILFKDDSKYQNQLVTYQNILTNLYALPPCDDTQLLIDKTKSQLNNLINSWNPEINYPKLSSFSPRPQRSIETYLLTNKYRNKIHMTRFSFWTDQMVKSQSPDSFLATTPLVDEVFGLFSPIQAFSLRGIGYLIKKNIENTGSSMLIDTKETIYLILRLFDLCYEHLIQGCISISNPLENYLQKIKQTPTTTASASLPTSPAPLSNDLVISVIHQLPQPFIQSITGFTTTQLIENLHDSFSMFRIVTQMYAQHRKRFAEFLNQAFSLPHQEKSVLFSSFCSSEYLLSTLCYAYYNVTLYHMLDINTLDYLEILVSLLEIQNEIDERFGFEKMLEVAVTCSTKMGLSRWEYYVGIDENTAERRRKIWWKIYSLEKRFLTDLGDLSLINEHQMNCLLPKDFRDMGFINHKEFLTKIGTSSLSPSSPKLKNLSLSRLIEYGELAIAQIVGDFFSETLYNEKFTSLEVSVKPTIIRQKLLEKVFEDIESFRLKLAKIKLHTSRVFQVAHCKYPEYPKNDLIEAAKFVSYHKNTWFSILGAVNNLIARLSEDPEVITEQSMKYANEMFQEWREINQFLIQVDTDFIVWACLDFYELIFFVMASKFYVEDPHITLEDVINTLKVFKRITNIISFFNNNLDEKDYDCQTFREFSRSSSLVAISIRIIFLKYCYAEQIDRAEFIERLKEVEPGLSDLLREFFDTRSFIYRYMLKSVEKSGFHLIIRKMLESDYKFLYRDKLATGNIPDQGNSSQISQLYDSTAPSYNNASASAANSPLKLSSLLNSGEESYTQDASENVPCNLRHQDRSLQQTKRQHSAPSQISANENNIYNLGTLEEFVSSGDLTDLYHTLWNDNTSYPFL
Assay: PBM E-score (8-mer binding enrichment) (E-score (-0.5 to 0.5)); higher = stronger / more preferred TF binding
Conditions: protein concentration: 200 nM; construct: GST-full length
The full ranking holds about 33,000 sequences; the median of “E-score (-0.5 to 0.5)” is about -0.035, and the highest 2% start at about 0.35. The sample as a whole holds a higher share of the highest values than the screen did.
Threshold rule: PBM E-score greater than or equal to 0.05 is true; below that, false.

monomer sequence: AGCCCCAT
classification: false
--
monomer sequence: CAGGAAAC
classification: false
--
monomer sequence: CCTGGTCA
classification: false
--
monomer sequence: GGGAACCC
classification: true
--
monomer sequence: GTCGGCTA
classification: false
--
monomer sequence: GGATAAAC
classification: true
--
monomer sequence: CGAACTCG
classification: true
--
monomer sequence: ACCAGGCG
classification: false
--
monomer sequence: CTAGGGAG
classification: false
--
monomer sequence: AATTAGCA
classification: true
--
monomer sequence: CTTCAGGC
classification: false

---

Target: Pdr3 (UniProt P33200)
Sequence: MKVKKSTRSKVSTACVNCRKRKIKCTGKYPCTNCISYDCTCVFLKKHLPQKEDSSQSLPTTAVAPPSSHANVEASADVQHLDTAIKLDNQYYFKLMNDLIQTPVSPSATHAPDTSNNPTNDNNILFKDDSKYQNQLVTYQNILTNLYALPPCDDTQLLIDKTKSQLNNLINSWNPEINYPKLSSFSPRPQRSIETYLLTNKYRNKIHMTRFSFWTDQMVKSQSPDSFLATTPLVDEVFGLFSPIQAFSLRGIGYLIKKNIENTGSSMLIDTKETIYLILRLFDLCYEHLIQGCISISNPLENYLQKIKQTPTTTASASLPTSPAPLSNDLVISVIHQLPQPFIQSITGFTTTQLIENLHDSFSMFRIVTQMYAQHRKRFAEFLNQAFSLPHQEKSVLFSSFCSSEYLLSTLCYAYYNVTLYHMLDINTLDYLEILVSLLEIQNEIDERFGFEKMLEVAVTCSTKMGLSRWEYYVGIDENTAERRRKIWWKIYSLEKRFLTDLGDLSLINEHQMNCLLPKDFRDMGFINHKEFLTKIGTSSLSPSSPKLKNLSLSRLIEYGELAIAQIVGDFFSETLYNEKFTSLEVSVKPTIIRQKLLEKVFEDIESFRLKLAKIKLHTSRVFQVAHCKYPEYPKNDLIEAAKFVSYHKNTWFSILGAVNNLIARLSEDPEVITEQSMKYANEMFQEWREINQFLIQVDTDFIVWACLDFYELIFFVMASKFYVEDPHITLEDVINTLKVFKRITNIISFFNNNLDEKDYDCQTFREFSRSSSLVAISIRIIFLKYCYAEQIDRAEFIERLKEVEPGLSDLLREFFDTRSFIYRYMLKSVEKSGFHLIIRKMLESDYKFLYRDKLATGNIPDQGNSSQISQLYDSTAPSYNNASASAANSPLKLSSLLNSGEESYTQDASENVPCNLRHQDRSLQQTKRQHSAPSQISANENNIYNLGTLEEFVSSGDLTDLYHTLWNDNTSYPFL
Experiment: PBM E-score (8-mer binding enrichment) (E-score (-0.5 to 0.5)); higher = stronger / more preferred TF binding
Settings: protein concentration: 200 nM; construct: GST-full length
Over roughly 33,000 sequences, “E-score (-0.5 to 0.5)” has its median near -0.035; the highest 2% begin near 0.35. This excerpt belongs to a sample that is enriched for the highest values.

monomer sequence: GGCGGAGA
assayed target: Pdr3 (UniProt P33200)
PBM E-score: 0.288
--
monomer sequence: CGGCGCCG
assayed target: Pdr3 (UniProt P33200)
PBM E-score: 0.463
--
monomer sequence: ACGACACC
assayed target: Pdr3 (UniProt P33200)
PBM E-score: 0.0551
--
monomer sequence: TATCACGA
assayed target: Pdr3 (UniProt P33200)
PBM E-score: -0.126
--
monomer sequence: CGGCGCCA
assayed target: Pdr3 (UniProt P33200)
PBM E-score: 0.171
--
monomer sequence: AGCCGGCT
assayed target: Pdr3 (UniProt P33200)
PBM E-score: 0.315
--
monomer sequence: AAATCCGT
assayed target: Pdr3 (UniProt P33200)
PBM E-score: 0.246
--
monomer sequence: CTTCGCCC
assayed target: Pdr3 (UniProt P33200)
PBM E-score: 0.0168
--
monomer sequence: CTATCTAA
assayed target: Pdr3 (UniProt P33200)
PBM E-score: 0.00128
--
monomer sequence: AGCCGGCA
assayed target: Pdr3 (UniProt P33200)
PBM E-score: 0.339
--
monomer sequence: TGCAATAA
assayed target: Pdr3 (UniProt P33200)
PBM E-score: -0.00943
--
monomer sequence: AGCATAAG
assayed target: Pdr3 (UniProt P33200)
PBM E-score: -0.0742
--
monomer sequence: AAATCCGC
assayed target: Pdr3 (UniProt P33200)
PBM E-score: 0.196
--
monomer sequence: AATCGACG
assayed target: Pdr3 (UniProt P33200)
PBM E-score: 0.058
--
monomer sequence: AGGAAGTA
assayed target: Pdr3 (UniProt P33200)
PBM E-score: 0.0507
--
monomer sequence: TAGGGGAA
assayed target: Pdr3 (UniProt P33200)
PBM E-score: -0.157
--
monomer sequence: CGCCGGCA
assayed target: Pdr3 (UniProt P33200)
PBM E-score: 0.339
--
monomer sequence: ATGAAGGG
assayed target: Pdr3 (UniProt P33200)
PBM E-score: -0.171
--
monomer sequence: AAATCCGG
assayed target: Pdr3 (UniProt P33200)
PBM E-score: 0.39
--
monomer sequence: CGCCGGCG
assayed target: Pdr3 (UniProt P33200)
PBM E-score: 0.452
--
monomer sequence: CGGGAAAA
assayed target: Pdr3 (UniProt P33200)
PBM E-score: 0.221
--
monomer sequence: CGGAAGTA
assayed target: Pdr3 (UniProt P33200)
PBM E-score: 0.393

---

Target: Pdr3 (UniProt P33200)
Sequence: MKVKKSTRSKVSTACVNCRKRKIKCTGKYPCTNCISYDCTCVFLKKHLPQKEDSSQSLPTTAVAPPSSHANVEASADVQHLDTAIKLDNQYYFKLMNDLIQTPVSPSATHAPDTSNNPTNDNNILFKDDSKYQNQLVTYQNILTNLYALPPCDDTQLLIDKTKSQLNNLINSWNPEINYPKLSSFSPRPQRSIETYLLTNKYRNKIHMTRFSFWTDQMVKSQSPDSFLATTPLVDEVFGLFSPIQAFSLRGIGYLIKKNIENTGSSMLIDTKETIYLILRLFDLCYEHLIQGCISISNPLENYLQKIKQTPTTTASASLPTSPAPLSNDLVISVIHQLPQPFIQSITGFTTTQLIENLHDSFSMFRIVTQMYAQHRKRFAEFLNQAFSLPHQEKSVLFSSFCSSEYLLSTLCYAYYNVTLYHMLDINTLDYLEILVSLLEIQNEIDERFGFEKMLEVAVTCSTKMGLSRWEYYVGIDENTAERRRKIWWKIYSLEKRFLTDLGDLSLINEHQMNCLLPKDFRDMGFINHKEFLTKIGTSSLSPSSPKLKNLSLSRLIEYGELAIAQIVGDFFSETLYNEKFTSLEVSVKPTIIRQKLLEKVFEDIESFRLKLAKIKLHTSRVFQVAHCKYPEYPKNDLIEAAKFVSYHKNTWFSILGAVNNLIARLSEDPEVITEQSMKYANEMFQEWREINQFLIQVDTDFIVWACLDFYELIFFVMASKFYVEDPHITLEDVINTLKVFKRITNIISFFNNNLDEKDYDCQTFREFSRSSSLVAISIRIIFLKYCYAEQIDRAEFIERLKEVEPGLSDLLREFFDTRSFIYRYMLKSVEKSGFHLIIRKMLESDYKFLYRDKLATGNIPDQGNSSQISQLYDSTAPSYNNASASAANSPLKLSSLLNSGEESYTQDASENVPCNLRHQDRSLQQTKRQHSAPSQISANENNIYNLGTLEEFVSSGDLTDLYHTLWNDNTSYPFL
Test: PBM E-score (8-mer binding enrichment) (E-score (-0.5 to 0.5)); higher = stronger / more preferred TF binding
Settings: protein concentration: 200 nM; construct: GST-full length
The full ranking holds about 33,000 sequences; the median of “E-score (-0.5 to 0.5)” is about -0.035, and the highest 2% start at about 0.35. Only a selection was taken, and the highest values are over-represented in it overall.

monomer sequence: GACGCCTA
assayed target: Pdr3 (UniProt P33200)
PBM E-score: -0.228
//
monomer sequence: CGCCGACC
assayed target: Pdr3 (UniProt P33200)
PBM E-score: 0.135
//
monomer sequence: CTTCACCA
assayed target: Pdr3 (UniProt P33200)
PBM E-score: -0.153
//
monomer sequence: CCGGTTCG
assayed target: Pdr3 (UniProt P33200)
PBM E-score: 0.217
//
monomer sequence: CGGGTTCA
assayed target: Pdr3 (UniProt P33200)
PBM E-score: 0.304
//
monomer sequence: TCGGGAAA
assayed target: Pdr3 (UniProt P33200)
PBM E-score: 0.309
//
monomer sequence: GCCGCCGA
assayed target: Pdr3 (UniProt P33200)
PBM E-score: 0.292
//
monomer sequence: GCGTTGCC
assayed target: Pdr3 (UniProt P33200)
PBM E-score: 0.126
//
monomer sequence: AAGTGGAA
assayed target: Pdr3 (UniProt P33200)
PBM E-score: -0.0995
//
monomer sequence: AAGACCAA
assayed target: Pdr3 (UniProt P33200)
PBM E-score: -0.0835
//
monomer sequence: CTCTCTGC
assayed target: Pdr3 (UniProt P33200)
PBM E-score: -0.0361
//
monomer sequence: GCAGAATA
assayed target: Pdr3 (UniProt P33200)
PBM E-score: -0.0373
//
monomer sequence: CGAAGGTA
assayed target: Pdr3 (UniProt P33200)
PBM E-score: 0.0358
//
monomer sequence: GGACGGCC
assayed target: Pdr3 (UniProt P33200)
PBM E-score: 0.188
//
monomer sequence: CGGGTTCC
assayed target: Pdr3 (UniProt P33200)
PBM E-score: 0.414
//
monomer sequence: CCGGTTCC
assayed target: Pdr3 (UniProt P33200)
PBM E-score: 0.426
//
monomer sequence: ACCTAAAG
assayed target: Pdr3 (UniProt P33200)
PBM E-score: -0.12
//
monomer sequence: AGAGTATA
assayed target: Pdr3 (UniProt P33200)
PBM E-score: -0.259
//
monomer sequence: CCGGTTCA
assayed target: Pdr3 (UniProt P33200)
PBM E-score: 0.104
//
monomer sequence: TTCAGAAA
assayed target: Pdr3 (UniProt P33200)
PBM E-score: -0.195
//
monomer sequence: CTAGGTTC
assayed target: Pdr3 (UniProt P33200)
PBM E-score: 0.154
//
monomer sequence: GAATCTCC
assayed target: Pdr3 (UniProt P33200)
PBM E-score: 0.225
